B1: ZNF649 (parent)
chain: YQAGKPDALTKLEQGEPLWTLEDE

Variants of: B1
PROTOCOL TEXT: protein stability index of a GFP-peptide fusion (GPS, HEK-293T) (PSI 1-6); higher = more stable;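 also: lentivirally expressed fusions sorted by FACS into six bins by GFP to DsRed ratio, PSI derived from sequencing read proportions per bin multiplied by bin number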
COND: c terminus: a fixed tail appended
RECORDED METRIC: protein stability index

query: Assign protein stability index to the following record: YQAGKPDALMKLEQGEPLWTLEDE [T10M]
result: 4.22

query: Input YQAGKPDAGTKLEQGEPLWTLEDE [L9G] , output reported protein stability index.
result: 4.55

These measurements were taken from the supplement of paper PMC10567573.
